- System: Danio rerio embryo
- PROTOCOL_DETAILS: BMC10 any morphological effect or mortality at 120 hpf; higher = less toxic
Measured BMC10 any morphological effect or mortality accompanies every entry in the list below.
Number only, in µM; omit the unit.

{"columns": ["MOLECULE", "TESTED_SYSTEM", "RECORDED_NUMBER"],
 "data": [
  ["COc1c2c(cc3c1-c1c(cc4c(c1OC)OCO4)CC(C)C(C)C3)OCO2 (stereo not given)", "Danio rerio embryo", 2.06]
]}

Next molecule, please.
So for CC(C)(C)C(O)C(Oc1ccc(-c2ccccc2)cc1)n1cncn1 (stereo not given) , the logged BMC10 any morphological effect or mortality turned out to be 16.4
